Assay: Inhibition of Candida albicans Nce103 beta-carbonic anhydrase by stopped flow CO2 hydration assay
Cut-off 3 µM on Ki: below means Satisfied, at or above means Not satisfied.

- Molecule: "CC(C)CC(=O)O [SODIUM ISOVALERATE]"
  Class: "Satisfied"
- Molecule: "CC(=O)Nc1ccc(C(=O)[O-])cc1.[Na+]"
  Class: "Satisfied"
- Molecule: "CCCCC(C)C(=O)O (configuration not stated)"
  Class: "Not satisfied"
- Molecule: "CCCCC(CC)C(N)=O (configuration not stated)"
  Class: "Not satisfied"
- Molecule: "O=C(O)c1ccc(S(=O)(=O)N(Cl)Cl)cc1"
  Class: "Not satisfied"
- Molecule: "CCCCC(CC)C(=O)NN (configuration not stated)"
  Class: "Not satisfied"
